test system: Plasmodium falciparum; assay: Antimalarial activity against Plasmodium falciparum TM91C235; format: functional, organism-based; settings: Plasmodium falciparum, TM91C235
pIC50: −log10 of the molar value.
Hi, to clarify the labels: Met covers pIC50 from 7 upward, Not met covers anything below 7.

compound: COC(=O)CC[C@@H](C)[C@H]1CC[C@H]2[C@@H]3CC[C@@H]4CC5(CC[C@]4(C)[C@H]3C[C@H](OC(C)=O)[C@]12C)OOC1(CCC(C)CC1)OO5 (stereo in doubt; 3b)
qualitative.label: Met
--
compound: CC(=O)O[C@H]1C[C@H]2[C@@H](CC[C@@H]3CC4(CC[C@@]32C)OOC2(CCCCC2)OO4)[C@@H]2CC[C@H]([C@H](C)CCC(N)=O)[C@@]12C
qualitative.label: Met
--
compound: CC(=O)O[C@H]1C[C@H]2[C@@H]([C@H](OC(C)=O)C[C@@H]3CC4(CC[C@@]32C)OOC2(CCCCC2)OO4)[C@@H]2CC[C@H]([C@H](C)CCC(=O)Nc3ccccc3)[C@@]12C
qualitative.label: Met
--
compound: CCCN(CCC)C(=O)CC[C@@H](C)[C@H]1CC[C@H]2[C@@H]3CC[C@@H]4CC5(CC[C@]4(C)[C@H]3C[C@H](OC(C)=O)[C@]12C)OOC1(CCCCC1)OO5
qualitative.label: Not met
--
compound: CC(=O)O[C@H]1C[C@H]2[C@@H]([C@H](OC(C)=O)C[C@@H]3CC4(CC[C@@]32C)OOC2(CCCCC2)OO4)[C@@H]2CC[C@H]([C@H](C)CCC(=O)NCCN(C)C)[C@@]12C
qualitative.label: Met
--
compound: C[C@@H]1CC[C@H]2[C@@H](C)C(=O)O[C@@H]3O[C@@]4(C)CC[C@@H]1[C@]32OO4
qualitative.label: Met
--
compound: CC(=O)O[C@H]1C[C@H]2[C@@H](CC[C@@H]3CC4(CC[C@@]32C)OOC2(CCCCC2)OO4)[C@@H]2CC[C@H]([C@H](C)CCC(=O)NCCN(C)C)[C@@]12C
qualitative.label: Not met
--
compound: CC(=O)O[C@H]1C[C@H]2[C@@H](CC[C@@H]3CC4(CC[C@@]32C)OOC2(CCC(C)CC2)OO4)[C@@H]2CC[C@H]([C@H](C)CCC(=O)O)[C@@]12C (stereo in doubt; 4b)
qualitative.label: Met
--
compound: CC(=O)O[C@H]1C[C@H]2[C@@H](CC[C@@H]3CC4(CC[C@@]32C)OOC2(CCCCC2)OO4)[C@@H]2CC[C@H]([C@H](C)CCC(=O)NN)[C@@]12C
qualitative.label: Not met
--
compound: CC(=O)O[C@H]1C[C@H]2[C@@H](CC[C@@H]3CC4(CC[C@@]32C)OOC2(CCC(C)CC2)OO4)[C@@H]2CC[C@H]([C@H](C)CCC(N)=O)[C@@]12C (stereo in doubt; 12)
qualitative.label: Met

----------
test: Toxicity in Plasmodium berghei KBG 173 infected CD1 mice (Mus musculus); type: organism-based; conditions: CD1, mouse, in vivo

query.smiles: CC(=O)O[C@H]1C[C@H]2[C@@H]([C@H](OC(C)=O)C[C@@H]3CC4(CC[C@@]32C)OOC2(CCCCC2)OO4)[C@@H]2CC[C@H]([C@H](C)CCC(=O)NCCN(C)C)[C@@]12C
MTD: > 960 mg/kg

----------
system: Plasmodium falciparum; test: Antimalarial activity against Plasmodium falciparum W2; format: functional, organism-based
outcome.measure: IC50 (µM)

compound: CCCNC(=O)CC[C@@H](C)[C@H]1CC[C@H]2[C@@H]3CC[C@@H]4CC5(CC[C@]4(C)[C@H]3C[C@H](OC(C)=O)[C@]12C)OOC1(CCC(C)CC1)OO5 (stereo in doubt; 15)
endpoint.value: 0.0338

compound: COC(=O)CC[C@@H](C)[C@H]1CC[C@H]2[C@@H]3CC[C@@H]4CC5(CC[C@]4(C)[C@H]3C[C@H](OC(C)=O)[C@]12C)OOC1(CCC(C)CC1)OO5 (stereo in doubt; 3c)
endpoint.value: 0.0383

----------
tested on: Plasmodium falciparum; experiment: Antimalarial activity against Plasmodium falciparum W2; assay type: functional, organism-based
pIC50: −log10 of the molar value.
Form field: pIC50 (one value per entry).

compound: CC(=O)O[C@H]1C[C@H]2[C@@H]([C@H](OC(C)=O)C[C@@H]3CC4(CC[C@@]32C)OOC2(CCC(C)CC2)OO4)[C@@H]2CC[C@H]([C@H](C)CCC(=O)NCCN(C)C)[C@@]12C (stereo in doubt; 23)
measured.target: Plasmodium falciparum
pIC50: 7.36
//
compound: CC(=O)O[C@H]1C[C@H]2[C@@H](CC[C@@H]3CC4(CC[C@@]32C)OOC2(CCC(C)CC2)OO4)[C@@H]2CC[C@H]([C@H](C)CCC(=O)O)[C@@]12C (stereo in doubt; 4b)
measured.target: Plasmodium falciparum
pIC50: 7.92

----------
tested on: Plasmodium falciparum; test: Antimalarial activity against Plasmodium falciparum D6; type: functional, organism-based
# label = T if IC50 < 20 nM else F

compound: CC(=O)O[C@H]1C[C@H]2[C@@H](CC[C@@H]3CC4(CC[C@@]32C)OOC2(CCC(C)CC2)OO4)[C@@H]2CC[C@H]([C@H](C)CCC(=O)Nc3ccccc3)[C@@]12C (stereo in doubt; 19)
qualitative.label: F
//
compound: COC(=O)CC[C@@H](C)[C@H]1CC[C@H]2[C@@H]3CC[C@@H]4CC5(CC[C@]4(C)[C@H]3C[C@H](OC(C)=O)[C@]12C)OOC1(CCC(C)CC1)OO5 (stereo in doubt; 3c)
qualitative.label: F
//
compound: CC(=O)O[C@H]1C[C@H]2[C@@H](CC[C@@H]3CC4(CC[C@@]32C)OOC2(CCC(C)CC2)OO4)[C@@H]2CC[C@H]([C@H](C)CCC(=O)NCCN(C)C)[C@@]12C (stereo in doubt; 17)
qualitative.label: F
//
compound: CCCNC(=O)CC[C@@H](C)[C@H]1CC[C@H]2[C@@H]3CC[C@@H]4CC5(CC[C@]4(C)[C@H]3C[C@H](OC(C)=O)[C@]12C)OOC1(CCC(C)CC1)OO5 (stereo in doubt; 14)
qualitative.label: T
//
compound: CC(=O)O[C@H]1C[C@H]2[C@@H](CC[C@@H]3CC4(CC[C@@]32C)OOC2(CCC(C)CC2)OO4)[C@@H]2CC[C@H]([C@H](C)CCC(=O)Nc3ccccc3)[C@@]12C (stereo in doubt; 18)
qualitative.label: F
//
compound: CC(=O)O[C@H]1C[C@H]2[C@@H](CC[C@@H]3CC4(CC[C@@]32C)OOC2(CCC(C)CC2)OO4)[C@@H]2CC[C@H]([C@H](C)CCC(N)=O)[C@@]12C (stereo in doubt; 13)
qualitative.label: F
//
compound: CC(=O)O[C@H]1C[C@H]2[C@@H](CC[C@@H]3CC4(CC[C@@]32C)OOC2(CCC(C)CC2)OO4)[C@@H]2CC[C@H]([C@H](C)CCC(=O)O)[C@@]12C (stereo in doubt; 4c)
qualitative.label: T
//
compound: CC(=O)O[C@H]1C[C@H]2[C@@H](CC[C@@H]3CC4(CC[C@@]32C)OOC2(CCC(C)CC2)OO4)[C@@H]2CC[C@H]([C@H](C)CCC(=O)NCCN(C)C)[C@@]12C (stereo in doubt; 16)
qualitative.label: T
